FYI, the data here is from paper PMC3411647.

- target system: hH3R (Homo sapiens)
- Construct: recombinant, cDNA from human thalamus RNA (AF140538), stably expressed in HEK-293 cells; vectors pCMV-Flag and pEGFP-N1
- Sequence (Q9Y5N1 whole entry): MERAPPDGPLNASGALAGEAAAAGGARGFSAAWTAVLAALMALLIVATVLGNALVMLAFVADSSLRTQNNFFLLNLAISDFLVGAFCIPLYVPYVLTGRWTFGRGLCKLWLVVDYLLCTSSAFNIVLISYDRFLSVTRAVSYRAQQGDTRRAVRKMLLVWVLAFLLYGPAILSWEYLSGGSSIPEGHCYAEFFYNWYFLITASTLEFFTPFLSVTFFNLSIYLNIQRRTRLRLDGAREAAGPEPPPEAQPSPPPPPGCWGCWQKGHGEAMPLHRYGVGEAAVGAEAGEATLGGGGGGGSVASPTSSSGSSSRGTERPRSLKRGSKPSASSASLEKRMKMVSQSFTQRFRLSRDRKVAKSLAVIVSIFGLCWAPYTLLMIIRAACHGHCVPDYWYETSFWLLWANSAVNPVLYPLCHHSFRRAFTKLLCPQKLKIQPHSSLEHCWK
- procedure details: Saturation radioligand binding (Scatchard) of [3H]N-α-methylhistamine (0.03-50 nM) to membranes of HEK-293 cells expressing hH3R, 50 mM Tris-HCl pH 7.4, room temperature.

| compound | Kd, nM |
| --- | --- |
| CNCCc1c[nH]cn1 [[^3H]N-α-methylhistamine, [3H]N-alpha-methylhistamine] | 0.71 |

----------
- target system: H3R (Homo sapiens)
- Construct: expressed in transfected cells
- procedure details: CRE-driven luciferase reporter gene assay in HEK-293 cells stably expressing hH3R
- Format: cell-based
- test parameters: inhibition of forskolin-induced luciferase activity; Mean ± SEM, n = 6
pEC50: −log10 of the molar value.
experimental endpoint: pEC50

| compound | experimental endpoint | endpoint result |
| --- | --- | --- |
| c1ccc2c(c1)c(CCCN1CCCCC1)cn2CCCN1CCCCC1 [ZEL-H16] | pEC50 | 8.36 |

----------
- target system: rat brain H3R (Rattus norvegicus)
- Sequence (Q9QYN8 whole entry): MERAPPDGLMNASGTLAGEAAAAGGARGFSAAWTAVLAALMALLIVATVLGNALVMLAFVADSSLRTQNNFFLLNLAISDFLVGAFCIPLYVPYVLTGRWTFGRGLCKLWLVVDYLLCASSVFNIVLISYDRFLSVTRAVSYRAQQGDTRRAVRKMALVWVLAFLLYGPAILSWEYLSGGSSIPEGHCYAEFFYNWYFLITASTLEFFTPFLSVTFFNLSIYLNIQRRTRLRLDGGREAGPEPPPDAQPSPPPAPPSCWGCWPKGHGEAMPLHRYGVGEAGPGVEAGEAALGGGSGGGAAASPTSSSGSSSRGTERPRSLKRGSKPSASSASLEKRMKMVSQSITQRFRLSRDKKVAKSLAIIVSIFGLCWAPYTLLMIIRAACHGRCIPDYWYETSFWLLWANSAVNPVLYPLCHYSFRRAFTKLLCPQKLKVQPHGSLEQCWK
experimental endpoint: Kd (nM)

| compound | experimental endpoint | endpoint result |
| --- | --- | --- |
| CNCCc1cnc[nH]1 [[^3H]N-α-methylhistamine, reference compound] | Kd | 0.83 |

----------
- target system: human histamine H3 receptor (Homo sapiens, UniProt Q9Y5N1)
- Construct: expressed in transfected cells
- Sequence (Q9Y5N1 whole entry): as the sequence (Q9Y5N1 whole entry) above
- procedure details: Competitive/saturation binding with [3H]N-α-methylhistamine, H3R/HEK-293 cell membranes

| compound | Ki [nM] |
| --- | --- |
| N=C(N)SCCc1c[nH]cn1 [imetit, S-[2-(4-imidazolyl)ethyl]isothiourea, reference compound] | 0.9 |

----------
- target system: human histamine H3 receptor (Homo sapiens, UniProt Q9Y5N1)
- Construct: expressed in transfected cells
- procedure details: Competitive/saturation binding with [3H]N-α-methylhistamine, H3R/HEK-293 cell membranes
- test parameters: 10 nM [3H]N-α-methylhistamine, H3R/HEK-293 membranes; read-out: Ki

| molecule | Ki / nM |
| --- | --- |
| c1ccc2c(c1)c(CCCN1CCCCC1)cn2CCCN1CCCCC1 [ZEL-H16] | 2.07 |

----------
- target system: H3R (Homo sapiens, UniProt Q9Y5N1)
- Construct: expressed in transfected cells
- Sequence (Q9Y5N1 whole entry): as the sequence (Q9Y5N1 whole entry) above
- procedure details: ERK1/2 phosphorylation (Western blot) in HEK-293 cells stably expressing H3R
- Assay type: cell-based
- test parameters: 10 nM to 100 µM, Western-blot densitometry

| compound | uom | EC50 |
| --- | --- | --- |
| c1ccc2c(c1)c(CCCN1CCCCC1)cn2CCCN1CCCCC1 [ZEL-H16] | µM | 1.1 |
